The values you see were collected from the C3SDB collision cross section collection.

Conditions: [M-H]-; instrument: DT; single field, calibrated with Agilent tune mix (Agilent)

Compound	Unit Info	collision cross section (N2)
O=C(COP(=O)(O)O)[C@@H](O)[C@H](O)[C@H](O)CO [Fructose-1-phosphate]	Å²	141.86
O=c1[nH]cc([C@@H]2O[C@H](CO)[C@@H](O)[C@H]2O)c(=O)[nH]1	Å²	145.23
N[C@@H](CCSC[C@H](N)C(=O)O)C(=O)O	Å²	139.51
NCCc1ccc(O)cc1	Å²	129.74
NCCP(=O)(O)O	Å²	118.25
Nc1nc(=O)c2ncn([C@H]3C[C@H](O)[C@@H](COP(=O)(O)OP(=O)(O)OP(=O)(O)O)O3)c2[nH]1 [Deoxyguanosine triphosphate]	Å²	189.26
OCC1(O)OC[C@@H](O)[C@H](O)[C@@H]1O (stereo partly drawn)	Å²	129.77
O=C(O)CCc1cccc(O)c1 [3-(3-Hydroxyphenyl)propanoic acid]	Å²	136.11
O=C(O)/C=C/c1c[nH]c2ccccc12	Å²	134.53
CN(C)CCc1ccc(O)cc1	Å²	143.21
NC(=O)c1ncn([C@@H]2O[C@H](COP(=O)(O)O)[C@@H](O)[C@H]2O)c1N [5'-Phosphoribosyl-5-amino-4-imidazolecarboxamide]	Å²	167.62
O=C(O)/C=C/CCCCCCCCC(=O)O	Å²	149.85
O=C(O)c1cc(O)ccc1O	Å²	122.67
NC(Cc1c[nH]c2ccc(O)cc12)C(=O)O (stereo not drawn) [5-Hydroxytryptophan]	Å²	149.2
COc1cc(/C=C/CO)ccc1O	Å²	138.18
Nc1nc(=O)c2c([nH]1)NCC(CNc1ccc(C(=O)N[C@@H](CCC(=O)O)C(=O)O)cc1)N2C=O (stereo partly drawn)	Å²	196.26
Nc1ccn([C@H]2C[C@H](O)[C@@H](CO)O2)c(=O)n1	Å²	146.84
CC(=O)NC(CCC(N)=O)C(=O)O (stereo not drawn)	Å²	136.83
NCCc1c[nH]c2ccc(O)cc12	Å²	135.85
CC(C)C(O)C(=O)O (stereo not drawn) [2-Hydroxy-3-methylbutyric acid]	Å²	118.65
O=c1nc2[nH][nH]cc-2c(=O)[nH]1	Å²	120.1
CC1=C(/C=C/C(C)=C/C=C/C(C)=C/C(=O)O)C(C)(C)CCC1 [All-trans-retinoic acid]	Å²	203.42
COc1ccc2[nH]cc(CCN)c2c1	Å²	141.18
CC(C)(CO)[C@@H](O)C(=O)NCCCO	Å²	141.49
O=C(O)Cc1ccc(O)cc1 [p-Hydroxyphenylacetic acid]	Å²	126.65
CCCCCCCCCCCCCCCCCC(=O)O	Å²	174.42
NCCC(=O)N[C@@H](Cc1cnc[nH]1)C(=O)O	Å²	149.72
Nc1nc(=O)c2nc([C@H](O)[C@H](O)CO)cnc2[nH]1	Å²	150.31
CC(=O)NCCCCN	Å²	127.22
CC(=O)[C@@]1(O)CC[C@H]2[C@@H]3CCC4=CC(=O)CC[C@]4(C)[C@H]3CC[C@@]21C [17alpha-Hydroxyprogesterone]	Å²	183.75
CC(C)C[C@H](NC(=O)CN)C(=O)O	Å²	142.07
NCCc1c[nH]c2ccccc12	Å²	131.55
CC(C)=CCC[C@@H](C)[C@H]1CC[C@H]2[C@@H]3CC=C4C[C@@H](O)CC[C@]4(C)[C@H]3CC[C@]12C	Å²	210.05
Cn1c(=O)[nH]c2[nH]c(=O)n(C)c2c1=O	Å²	134.06
Cn1cnc2[nH]c(=O)[nH]c(=O)c21	Å²	128.75
O=C(O)CCCCCCCC(=O)O	Å²	137.38
CCCCCCCC/C=C\CCCCCCCCCCCC(=O)O	Å²	188.5
C[C@@H](O)[C@@H](O)c1cnc2[nH]c(N)nc(=O)c2n1	Å²	148.31
